FYI, the data here is from paper PMC6941357.

Measured Predicted human Peff values are reported for all entries that follow.
Test: Solubility limited absorbable dose (SLAD) calculation with predicted human jejunal Peff
Settings: from Caco-2 Papp via calibration plot
measurement name: Predicted human Peff

INSERT INTO assay_data (compound, observed_measurement) VALUES
  ('N#Cc1cc(NC(=O)[C@H]2c3ccccc3C(=O)N(CC(F)(F)F)[C@@H]2c2cccnc2)ccc1F [SJ733]', '1.8 10^−4 cm/s'),
  ('C[C@H]1Cc2c([nH]c3cc(Cl)c(F)cc23)[C@@]2(N1)C(=O)Nc1ccc(Cl)cc12 [KAE609]', '11 10^−4 cm/s'),
  ('CN(C)C[c-]1cccc1CNc1ccnc2cc(Cl)ccc12.[Fe+2].c1cc[cH-]c1 (stereo not shown) [Ferroquine]', '2.2 10^−4 cm/s'),
  ('C[C@H]1[C@H](OC(=O)CCC(=O)O)O[C@@H]2O[C@@]3(C)CC[C@H]4[C@H](C)CC[C@@H]1[C@@]24OO3 [Artesunate]', '0.66 10^−4 cm/s'),
  ('CC(C)(C)NCc1cc(C(C)(C)C)cc(-c2cnc(C(F)(F)F)c(F)c2)c1O [JPC3210]', '11 10^−4 cm/s'),
  ('CS(=O)(=O)c1ccc(-c2cnc(N)c(-c3ccc(C(F)(F)F)nc3)c2)cc1 [MMV048]', '3.8 10^−4 cm/s'),
  ('CO[C@H]1O[C@@H]2O[C@@]3(C)CC[C@H]4[C@H](C)CC[C@@H]([C@H]1C)[C@@]24OO3 [Artemether]', '3.9 10^−4 cm/s'),
  ('CC(C)NC(=N)NC(=N)Nc1ccc(Cl)c(Cl)c1 [Chlorproguanil]', '1.5 10^−4 cm/s'),
  ('CC(C)(N)CNC(=O)C[C@H]1CC[C@]2(CC1)OO[C@]1(O2)C2CC3CC(C2)CC1C3 [OZ277, Arterolane]', '2.7 10^−4 cm/s'),
  ('COc1ncnc(NS(=O)(=O)c2ccc(N)cc2)c1OC [Sulfadoxine]', '1.9 10^−4 cm/s'),
  ('CCCCN(CCCC)CCC(O)c1cc2c(Cl)cc(Cl)cc2c2cc(C(F)(F)F)ccc12 (stereo not shown) [Halofantrine]', '11 10^−4 cm/s'),
  ('Clc1ccc2c(N3CCN(CCCN4CCN(c5ccnc6cc(Cl)ccc56)CC4)CC3)ccnc2c1 [Piperaquine]', '11 10^−4 cm/s'),
  ('CCN(CC)CCCNc1ccnc2cc(Cl)ccc12.Cl.Cl [AQ-13]', '1.9 10^−4 cm/s'),
  ('COc1ccc2nc3cc(Cl)ccc3c(Nc3cc(CN4CCCC4)c(O)c(CN4CCCC4)c3)c2n1 [Pyronaridine]', '1.4 10^−4 cm/s'),
  ('[H]/N=C(\N/C(=N/[H])Nc1ccc(Cl)cc1)NC(C)C [Proguanil]', '0.71 10^−4 cm/s'),
  ('C[C@H]1[C@H](N2CCS(=O)(=O)CC2)O[C@@H]2O[C@@]3(C)CC[C@H]4[C@H](C)CC[C@@H]1[C@@]24OO3 [Artemisone]', '5.0 10^−4 cm/s'),
  ('Cc1cc(Nc2ccc(S(F)(F)(F)(F)F)cc2)n2nc(C(C)(F)F)nc2n1 [DSM265]', '4.8 10^−4 cm/s'),
  ('COc1cc(C)c2c(Oc3cccc(C(F)(F)F)c3)c(OC)cc(NC(C)CCCN)c2n1 (stereo not shown) [Tafenoquine]', '11 10^−4 cm/s'),
  ('CC[C@H]1OC(=O)[C@H](C)[C@@H](O[C@H]2C[C@@](C)(OC)[C@@H](O)[C@H](C)O2)[C@H](C)[C@@H](O[C@@H]2O[C@H](C)C[C@H](N(C)C)[C@H]2O)[C@](C)(O)C[C@@H](C)CN(C)[C@H](C)[C@@H](O)[C@]1(C)O [Azithromycin]', '0.16 10^−4 cm/s');
